Could you please report measured Albumin Binding for the items listed next?
molecular target: bovine serum albumin (Bos taurus); construct: dissolved at a concentration of 100 μM in 5% bovine serum albumin-saline solution (pH 7.2); from tissue; host or cells: bovine serum (only from the protein's name); test: Albumin binding by equilibrium dialysis; assay type: in vitro ADME; settings: 100 μM BA in 5% bovine serum albumin-saline, pH 7.2
Sequence (P02769 25-607): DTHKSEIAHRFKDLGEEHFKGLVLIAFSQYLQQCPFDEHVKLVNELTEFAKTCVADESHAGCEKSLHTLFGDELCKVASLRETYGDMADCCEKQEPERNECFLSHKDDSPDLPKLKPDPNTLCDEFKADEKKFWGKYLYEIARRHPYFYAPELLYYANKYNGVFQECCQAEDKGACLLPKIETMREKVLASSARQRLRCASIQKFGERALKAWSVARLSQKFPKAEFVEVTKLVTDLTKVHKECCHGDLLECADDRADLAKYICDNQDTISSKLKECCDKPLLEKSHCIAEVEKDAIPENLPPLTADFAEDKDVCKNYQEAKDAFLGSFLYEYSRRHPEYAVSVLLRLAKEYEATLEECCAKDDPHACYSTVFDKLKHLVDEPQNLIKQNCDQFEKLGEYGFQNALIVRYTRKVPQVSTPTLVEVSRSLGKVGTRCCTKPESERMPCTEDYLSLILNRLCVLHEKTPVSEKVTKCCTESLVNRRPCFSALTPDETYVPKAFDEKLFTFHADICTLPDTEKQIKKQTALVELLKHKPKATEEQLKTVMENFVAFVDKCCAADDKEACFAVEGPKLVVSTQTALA
Counter-ions that a name gives are not always drawn.

For each of the items listed, what is its Albumin Binding?
1. C[C@H](CCC(=O)O)[C@H]1CC[C@H]2[C@@H]3[C@@H](O)C[C@@H]4C[C@H](O)CC[C@]4(C)[C@H]3CC[C@]12C [UDCA, reference compound]
2. CC[C@H]1[C@@H](O)[C@@H]2[C@H](C[C@H](O)[C@]3(C)[C@@H]([C@H](C)CCCS(=O)(=O)[O-])CC[C@@H]23)[C@@]2(C)CC[C@@H](O)C[C@@H]12.[Na+]
3. CCC1C(O)C2C3CCC(C(C)CC(C)OS(=O)(=O)O)C3(C)CCC2C2(C)CCC(O)CC12 (stereo not shown) [Compound 2A, Sodium Salt]
4. C[C@H](CCC(=O)O)[C@H]1CC[C@H]2[C@@H]3[C@H](O)C[C@@H]4C[C@H](O)CC[C@]4(C)[C@H]3CC[C@]12C

1. 94%
2. 81%
3. 97%
4. 93%
